# protocol_summary: Apparent permeability across apical to basolateral side in human Caco-2 cells measured after 90 mins by LC-MS/MS analysis
# stated_conditions: caco-2, 1.5 h
recorded_metric: Papp

- CC1CCN(CC(=O)Nc2sc3c(c2C(=O)NCc2ccccc2)CCCC3)CC1: 1.2 10^-6 cm/s

Quick check: Papp of CSc1ncc(Cl)c(C(=O)Nc2sc3c(c2C(=O)NCc2ccccc2)CCCC3)n1 ?
4.2 10^-6 cm/s

Return reported Papp; argument: CN1CCN(CC(=O)Nc2sc3c(c2C(=O)NCc2ccccc2)CCCC3)CC1
4.6 10^-6 cm/s

Entry Cn1ccnc1SCC(=O)Nc1sc2c(c1C(=O)NCc1ccccc1)CCCC2 has what Papp?
18 10^-6 cm/s

Please look up its Papp: CCC1CCc2c(sc(NC(=O)c3ccnn3C)c2C(=O)Nc2ccccc2C)C1 (centres undefined)
1.8 10^-6 cm/s

Field request: Papp | item: CSc1ncc(Cl)c(C(=O)Nc2sc3c(c2C(=O)NC2CCS(=O)(=O)C2)CCC(C)C3)n1 (centres undefined)
1.4 10^-6 cm/s

GET /values?readout=Papp&item= CC1CCCN1C(=O)c1c(NC(=O)c2cccnc2)sc2c1CCCC2 (centres undefined)
34.2 10^-6 cm/s

Consider the molecule shown here: CC1CCc2c(sc(NC(=O)c3ccccc3F)c2C(=O)N2CCN(C)CC2)C1 (centres undefined) What is its recorded Papp?
28.2 10^-6 cm/s

Item under review: O=C(Nc1sc2c(c1C(=O)N1CCC(CO)C1)CCCC2)c1cccnc1 (centres undefined) . Reported Papp?
4.4 10^-6 cm/s

###

# protocol_summary: Efflux ratio of apparent permeability from apical to basolateral side over basolateral to apical side in MDCKII-MDR1 cells at 10 uM incubated for 90 mins in presence of cyclosporine A by LC-MS/MS analysis
# stated_conditions: dog, mdck-mdr1, 1.5 h
Think of 0.8 as a floor: if Ratio stands on it or above, it is 1; beneath it, 0.

- CSc1ncc(Cl)c(C(=O)Nc2sc3c(c2C(=O)NC2CCS(=O)(=O)C2)CCC(C)C3)n1 (stereo not given): 1
- CSc1ncc(Cl)c(C(=O)Nc2sc3c(c2C(=O)NCc2ccccc2)CCCC3)n1: 0
- CN1CCN(CC(=O)Nc2sc3c(c2C(=O)NCc2ccccc2)CCCC3)CC1: 1

Does Ratio meet or surpass 0.8 for O=C(Nc1sc2c(c1C(=O)N1CCC(CO)C1)CCCC2)c1cccnc1 (stereo not given) ?
1

###

# protocol_summary: Lipophilicity, logD of the compound at pH 7.4
# stated_conditions: buffer
Assign Criterion met to entries whose logD meets or exceeds 4; assign Criterion not met to the rest.

Below, 4 molecules whose answers are already recorded.
- CC1(C)CCc2c(sc(NC(=O)c3cnccn3)c2C(=O)N2CCOCC2)C1: Criterion not met
- CSc1ncc(Cl)c(C(=O)Nc2sc3c(c2C(=O)NC2CCS(=O)(=O)C2)CCC(C)C3)n1 (stereo not given): Criterion not met
- CCC1CCc2c(sc(NC(=O)c3ccnn3C)c2C(=O)Nc2ccccc2C)C1 (stereo not given): Criterion met
- CC1CCc2c(sc(NC(=O)c3ccccc3F)c2C(=O)N2CCN(C)CC2)C1 (stereo not given): Criterion not met

Let us examine a further case.
Quick check: does Cn1ccnc1SCC(=O)Nc1sc2c(c1C(=O)NCc1ccccc1)CCCC2 have logD greater than or equal to 4?
Criterion met

Each recorded value in this set is attributed to ChEMBL document CHEMBL5338779.
